Target Or Test System: P2X7R (Homo sapiens, UniProt Q99572)
Sequence (Q99572 whole entry): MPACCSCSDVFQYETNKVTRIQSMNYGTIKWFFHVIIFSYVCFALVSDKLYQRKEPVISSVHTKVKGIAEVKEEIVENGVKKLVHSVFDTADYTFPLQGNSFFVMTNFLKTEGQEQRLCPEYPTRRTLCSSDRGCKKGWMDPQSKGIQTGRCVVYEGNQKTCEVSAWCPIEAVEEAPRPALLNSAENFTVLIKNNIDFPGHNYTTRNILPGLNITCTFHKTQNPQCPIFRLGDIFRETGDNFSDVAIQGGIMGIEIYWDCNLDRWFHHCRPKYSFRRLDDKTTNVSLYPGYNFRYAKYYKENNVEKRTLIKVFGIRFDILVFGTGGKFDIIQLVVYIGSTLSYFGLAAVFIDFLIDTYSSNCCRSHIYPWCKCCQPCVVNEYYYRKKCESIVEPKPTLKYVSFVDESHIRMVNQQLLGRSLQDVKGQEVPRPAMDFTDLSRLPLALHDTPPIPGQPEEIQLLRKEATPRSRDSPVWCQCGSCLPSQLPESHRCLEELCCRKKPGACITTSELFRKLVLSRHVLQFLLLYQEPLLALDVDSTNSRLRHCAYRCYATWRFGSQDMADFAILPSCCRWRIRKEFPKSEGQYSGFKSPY
Protocol Text: Yo-Pro-1 uptake assay (Yo-Pro-1 Assay) in HEK-293 cells transiently transfected with P2X7R
Assay Conditions: HEK-293 cells transiently transfected with P2X7R; 30 μM bzATP as stimulus; readings 1 hour after stimulation; estimated from dose-response curves
Experimental: Yo-Pro-1 Iodide (Cat. No Y3603 from Fisher Scientific) is a fluorescent DNA-binding dye with a MW of 629 Da. This method is based upon the Yo-Pro-1 entrance to cells through the dilated or “large pore form” of P2X7R and its binding to intracellular DNA whereby it increases its fluorescence intensity (J. Pharmacol. Exp. Ther. 308, 1053-1061). […] This Yo-Pro-1 uptake was measured in HEK-293 cells transiently transfected with P2X7R (J. Biol. Chem. 290, 7930-7942). […]
Consider the following compounds; for each one, report its IC50.
Please make sure the unit comes right after the number.

Some entries whose results are on file:
>  <Compound>
O=C(CCc1ccccc1)NC1CCCN(S(=O)(=O)c2ccc(F)cc2)C1 (stereo not drawn) [#3]

>  <Experimental Readout>
IC50

>  <Result>
3200 nM

$$$$
>  <Compound>
O=C(CCc1ccccc1)NC1CCCN(c2ccc(S(=O)(=O)NC3CCCCC3)cc2)C1 (stereo not drawn) [#51]

>  <Experimental Readout>
IC50

>  <Result>
3100 nM

$$$$

For each of the compounds below, note its IC50.
1. O=C(CCc1ccccc1)NC1CCCN(S(=O)(=O)c2ccc(N3CCC(C(F)(F)F)CC3)cc2)C1 (stereo not drawn) [#42]
2. O=C(NCCc1ccccc1)C1CCN(S(=O)(=O)c2ccc(N3CCCC3)cc2)CC1 [#21]
3. CCCCNc1ccc(S(=O)(=O)N2CCCC(NC(=O)CCc3ccccc3)C2)cc1 (stereo not drawn) [#15]
4. COCCOc1ccc(S(=O)(=O)N2CCCC(NC(=O)CCc3ccccc3)C2)cc1 (stereo not drawn) [#17]

["900 nM", "900 nM", "1000 nM", "16100 nM"]

For each of the compounds below, note its IC50.
1. CC(C)COc1ccc(S(=O)(=O)N2CCCC(NC(=O)CCc3ccccc3)C2)cc1 (stereo not drawn) [#6]
2. O=C(CCc1ccccc1)NC1CCCN(c2ccc(S(=O)(=O)N3CCCCC3)cc2)C1 (stereo not drawn) [#54]
3. CC(C)(C)OC(=O)N1CCN(c2ccc(S(=O)(=O)N3CCC(C(=O)NCCc4ccccc4)CC3)cc2)CC1 [#22]

2700 nM
1500 nM
12600 nM

For each of the compounds below, note its IC50.
1. CC1CCN(c2ccc(S(=O)(=O)N3CCCC(NC(=O)CCc4ccccc4)C3)cc2)CC1 (stereo not drawn) [#40]
2. O=C(CCc1ccccc1)NC1CCCN(c2ccc(S(=O)(=O)N3CCCC3)cc2)C1 (stereo not drawn) [#55]
3. O=C(CCc1ccccc1)N1CCN(S(=O)(=O)c2ccc(N3CCCCC3)cc2)CC1 [#34]

1: 800 nM; 2: 2900 nM; 3: 2700 nM

For each of the compounds below, note its IC50.
1. COc1ccc(S(=O)(=O)N2CCCC(NC(=O)CCc3ccccc3)C2)cc1 (stereo not drawn) [#2]
2. O=C(NCCc1ccccc1)C1CCN(S(=O)(=O)c2ccc(N3CCCCC3)cc2)CC1 [#20]
3. O=C(CCc1ccccc1)NC1CCCN(S(=O)(=O)c2ccc(N3CCCCC3)c(Cl)c2)C1 (stereo not drawn) [#45]
4. CC(C)N(C(C)C)S(=O)(=O)c1ccc(N2CCCC(NC(=O)CCc3ccccc3)C2)cc1 (stereo not drawn) [#49]
5. O=C(NCCc1ccccc1)C1CCCN(S(=O)(=O)c2ccc(N3CCOCC3)cc2)C1 (stereo not drawn) [#24]
6. O=C1CCC(N2Cc3c(NC(=O)CCc4ccccc4)cccc3C2=O)C(=O)N1 (stereo not drawn) [#16]
7. NS(=O)(=O)c1ccc(N2CCCC(NC(=O)CCc3ccccc3)C2)cc1 (stereo not drawn) [#53]

2800 nM
1000 nM
9300 nM
2600 nM
10200 nM
3600 nM
4600 nM

###

Target Or Test System: Human P2X1 receptor (P2X1R) (Homo sapiens, UniProt P51575)
Construct: expressed in transfected cells; host or cells: HEK-293
Protocol Text: Receptor-mediated calcium entrance assay (Calcium Assay), P2X1R transfected HEK-293 cells
Assay type: cell-based
Assay Conditions: HEK293, compound at 5 μM, ATP 20 μM stimulus, read-out: Percentage of activity remains in the presence of the compound at 5 μM, P2X1R (Calcium Assay)
Structures can show the parent of a compound that is named as a salt.
Consider the reported remaining activity at 5 µM of an entry and match it to a band in low bin (below 50%), mid bin (50% to below 60%), high bin (60% or more)

// below: answered molecules
>  <Molecule>
CCOc1ccc(S(=O)(=O)N2CCCC(NC(=O)CCc3ccccc3)C2)cc1 (stereo not drawn)

>  <Group>
mid bin

$$$$
>  <Molecule>
O=C(CCc1ccccc1)NC1CCCN(c2ccc(S(=O)(=O)N3CCCC3)cc2)C1 (stereo not drawn)

>  <Group>
mid bin

$$$$
>  <Molecule>
CC1CCCN(c2ccc(S(=O)(=O)N3CCCC(NC(=O)CCc4ccccc4)C3)cc2)C1 (stereo not drawn)

>  <Group>
low bin

$$$$
>  <Molecule>
CN(C)c1ccc(S(=O)(=O)N2CCCC(NC(=O)CCc3ccccc3)C2)cc1 (stereo not drawn)

>  <Group>
high bin

$$$$
>  <Molecule>
O=C(CCc1ccccc1)NC1CCCN(S(=O)(=O)c2ccc(N3CCCCC3)c(Cl)c2)C1 (stereo not drawn)

>  <Group>
mid bin

$$$$
>  <Molecule>
O=C(CCc1ccccc1)NC1CCCN(S(=O)(=O)c2ccc(-n3cc(Br)cn3)cc2)C1 (stereo not drawn)

>  <Group>
high bin

$$$$
>  <Molecule>
O=C(CCc1ccccc1)NC1CCCN(S(=O)(=O)c2ccc(F)c(Cl)c2)C1 (stereo not drawn)

>  <Group>
mid bin

$$$$
>  <Molecule>
O=C(CCc1ccccc1)NC1CCCN(S(=O)(=O)c2ccc(N3CCOCC3)cc2)C1 (stereo not drawn)

>  <Group>
mid bin

$$$$
>  <Molecule>
O=C(NCCc1ccccc1)C1CCCN(S(=O)(=O)c2ccc(N3CCOCC3)cc2)C1 (stereo not drawn)

>  <Group>
high bin

$$$$
>  <Molecule>
O=C(CCc1ccccc1)NC1CCCN(S(=O)(=O)c2ccc(N3CCC(Oc4ccccc4)CC3)cc2)C1 (stereo not drawn)

>  <Group>
low bin

$$$$

Please classify: `CC(C)(C)OC(=O)N1CCN(c2ccc(S(=O)(=O)N3CCN(C(=O)CCc4ccccc4)CC3)cc2)CC1`
low bin

Same question for O=C(CCc1ccccc1)NC1CCCN(S(=O)(=O)c2ccc(F)cc2)C1 (stereo not drawn) please.
low bin

Same question for O=C(CCc1ccccc1)N1CCNCC1 [#29, hydrochloride] please.
high bin

###

Consider the following compounds; for each one, report its remaining activity at 5 µM.
Target Or Test System: Human P2X1 receptor (P2X1R) (Homo sapiens, UniProt P51575)
Construct: expressed in transfected cells; host or cells: HEK-293
Sequence (P51575 1-399): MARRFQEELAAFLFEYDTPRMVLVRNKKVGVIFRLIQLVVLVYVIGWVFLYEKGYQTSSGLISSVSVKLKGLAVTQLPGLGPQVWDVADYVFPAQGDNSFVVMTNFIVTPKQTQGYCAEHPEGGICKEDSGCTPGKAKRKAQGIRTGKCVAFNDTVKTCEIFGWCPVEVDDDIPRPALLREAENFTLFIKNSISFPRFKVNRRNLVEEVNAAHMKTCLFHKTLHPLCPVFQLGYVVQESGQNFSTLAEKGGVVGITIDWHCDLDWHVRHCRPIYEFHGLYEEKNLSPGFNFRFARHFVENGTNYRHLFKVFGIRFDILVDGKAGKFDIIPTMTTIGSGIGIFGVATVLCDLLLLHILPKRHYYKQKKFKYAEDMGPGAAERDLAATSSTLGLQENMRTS
Protocol Text: Receptor-mediated calcium entrance assay (Calcium Assay), P2X1R transfected HEK-293 cells
Format: cell-based
Assay Conditions: HEK293, compound at 5 μM, ATP 20 μM stimulus, read-out: Percentage of activity remains in the presence of the compound at 5 μM, P2X1R (Calcium Assay)
One number for each entry, in %.

>  <Compound>
O=C(CCc1ccccc1)NC1CCCN(S(=O)(=O)Cc2ccc(Br)cc2)C1 (centres unmarked) [#8]

>  <Experimental Readout>
remaining activity at 5 µM

>  <Unit Annotation>
%

>  <Numeric Readout>
67

$$$$
>  <Compound>
CC(C)S(=O)(=O)c1ccc(N2CCCC(NC(=O)CCc3ccccc3)C2)cc1 (centres unmarked) [#7]

>  <Experimental Readout>
remaining activity at 5 µM

>  <Unit Annotation>
%

>  <Numeric Readout>
65.6

$$$$
>  <Compound>
NS(=O)(=O)c1ccc(N2CCCC(NC(=O)CCc3ccccc3)C2)cc1 (centres unmarked) [#53]

>  <Experimental Readout>
remaining activity at 5 µM

>  <Unit Annotation>
%

>  <Numeric Readout>
66.2

$$$$
>  <Compound>
NC(=O)c1cc(Br)cc(N2CCOCC2)c1 [#28]

>  <Experimental Readout>
remaining activity at 5 µM

>  <Unit Annotation>
%

>  <Numeric Readout>
62.6

$$$$

Which measured remaining activity at 5 µM value corresponds to O=C(CCc1ccccc1)N1CCN(S(=O)(=O)c2ccc(N3CCOCC3)cc2)CC1 [#32] ?
46.7
